- protocol_details: FRG1 promoter luciferase signal modulators, primary screen, FRG1 inhibition for FSHD, cell-based, C2C12 myotubes, firefly/Renilla luciferase, luminescence (AID 1084)
- test_settings: higher = more signal, called active from +8 up or from −8 down
Decision: z-score >= 0.3 yields label 1, all other cases yield label 0.

>>> assigned_category("O=C1C[C@@H](O)[C@@H](O)[C@@H]2[C@@H]3C(=O)N(c4cccc(Oc5ccccc5)c4)C(=O)[C@@H]3CC[C@@H]12")
"label 0"
>>> assigned_category("CC(CCN1CCc2nc(-c3ccccc3)c(-c3ccccc3)cc2C1)=NOC[C@@H](C)[C@H](OCc1ccccc1)C(C)C")
"label 1"
>>> assigned_category("CCN1C(=O)[C@H]2[C@H]3[C@H](O)[C@H](O)CC(=NOCc4ccccc4)[C@H]3CC[C@H]2C1=O")
"label 0"
>>> assigned_category("CCCNC(=O)OC[C@H]1O[C@H](CCON=C[C@@H](OC)[C@H](C)C=CCC(=O)OC)C=C[C@@H]1Oc1ccc(OC)cc1")
"label 1"
>>> assigned_category("COCCCNC(=O)[C@@]1(CCS(=O)(=O)c2ccccc2)N=C(c2ccc(OCCCO)cc2)O[C@H]1c1ccccc1")
"label 0"
>>> assigned_category("CO[C@H]1O[C@H](CO)[C@@H](OC(=O)Nc2ccc(C#N)cc2)[C@H](OC(=O)c2cc3ccccc3[nH]2)[C@H]1OC(=O)c1cc2ccccc2[nH]1")
"label 0"
>>> assigned_category("CC(C)CON=C1[C@H]2CCn3c(=O)n(-c4ccccc4)c(=O)n3[C@H]2[C@H](O)[C@@H]2O[C@H]12")
"label 0"
